src = ChEMBL document CHEMBL3351542

# TARGET_OF_ASSAY: Neuropeptide FF receptor 2 (Homo sapiens, UniProt Q9Y5X5)
# Sequence (Q9Y5X5 whole entry): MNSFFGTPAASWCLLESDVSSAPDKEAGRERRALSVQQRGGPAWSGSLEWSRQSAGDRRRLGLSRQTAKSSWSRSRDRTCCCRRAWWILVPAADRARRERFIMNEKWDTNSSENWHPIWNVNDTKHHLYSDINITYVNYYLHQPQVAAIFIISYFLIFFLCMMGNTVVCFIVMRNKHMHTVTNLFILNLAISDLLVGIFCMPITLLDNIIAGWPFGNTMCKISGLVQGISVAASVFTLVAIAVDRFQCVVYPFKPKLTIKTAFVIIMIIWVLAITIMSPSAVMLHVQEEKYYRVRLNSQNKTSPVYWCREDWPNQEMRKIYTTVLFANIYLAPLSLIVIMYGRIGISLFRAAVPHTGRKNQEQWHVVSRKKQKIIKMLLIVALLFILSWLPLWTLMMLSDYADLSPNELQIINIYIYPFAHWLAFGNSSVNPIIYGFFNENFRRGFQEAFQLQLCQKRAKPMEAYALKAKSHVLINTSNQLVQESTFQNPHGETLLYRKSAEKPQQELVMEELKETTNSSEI
# ASSAY_DETAILS: Agonist activity at human NPFF2 receptor expressed in CHO cells assessed as inhibition of forskolin-induced intracellular cAMP accumulation by liquid scintillation counting analysis
# Format: functional, cell-based
ENDPOINT_LABEL: EC50

Recorded EC50 (compound N=C(N)NCC(=O)NCC1(Cc2ccccc2)CCN(Cc2ccccc2)CC1 ): > 1000 nM

###

# TARGET_OF_ASSAY: UniProt:Q9Y5X5
# ASSAY_DETAILS: Antagonist activity at human NPFF2 receptor expressed in CHO cells assessed as reversal of 1DMe-induced inhibition of intracellular cAMP accumulation after 10 mins by liquid scintillation counting analysis relative to control
# Type: functional, cell-based
ENDPOINT_LABEL: pEC50
Reminder that pEC50 means the negative base-10 logarithm of the concentration expressed in mol/L.

What the record says about N=C(N)NCC(=O)NCC1(Cc2cccc3ccccc23)CCN(Cc2ccccc2)CC1 : pEC50 is 6.19
